experiment: P. falciparum Dd2 growth inhibitors, dose response, SYBR Green, cherry-picked samples (AID 1159567); format: functional, cell-based
The source made the active and inactive calls.
Quantity measured: AC50

Please supply AC50 for each of the following items, keeping them in order.
1. C[C@H](CO)N1C[C@H](C)[C@H](CN(C)C(=O)C2CC2)Oc2cc(C#Cc3ccccc3)ccc2S1(=O)=O
2. CCC(=O)N1CC(=O)N2[C@@H](CO)[C@H](c3ccc(C#CCc4ccccc4)cc3)[C@@H]2C1
3. COc1ccc(NC(=O)N(C)C[C@H]2OCc3ccccc3-c3c(n(C)c4ccccc34)C(=O)N([C@@H](C)CO)C[C@H]2C)c(OC)c1
4. C[C@H]1CN([C@@H](C)CO)C(=O)c2ccccc2-c2ccccc2CO[C@H]1CN(C)Cc1ccc(C(F)(F)F)cc1

1. 4.27 µM (active)
2. 11.4 µM (active)
3. 4.92 µM (active)
4. 3.03 µM (active)

* * *

Could you please report measured AC50 for the items listed next?
molecular target: Cytochrome P450 2C19 (Homo sapiens, UniProt P33261); experiment: Cytochrome panel assay with activity outcomes. Panel member name: p450-cyp2c19 Compounds with AC50 equal or less than 10 uM are considered active; format: functional; details: read-out: AC50
Sequence (P33261 whole entry): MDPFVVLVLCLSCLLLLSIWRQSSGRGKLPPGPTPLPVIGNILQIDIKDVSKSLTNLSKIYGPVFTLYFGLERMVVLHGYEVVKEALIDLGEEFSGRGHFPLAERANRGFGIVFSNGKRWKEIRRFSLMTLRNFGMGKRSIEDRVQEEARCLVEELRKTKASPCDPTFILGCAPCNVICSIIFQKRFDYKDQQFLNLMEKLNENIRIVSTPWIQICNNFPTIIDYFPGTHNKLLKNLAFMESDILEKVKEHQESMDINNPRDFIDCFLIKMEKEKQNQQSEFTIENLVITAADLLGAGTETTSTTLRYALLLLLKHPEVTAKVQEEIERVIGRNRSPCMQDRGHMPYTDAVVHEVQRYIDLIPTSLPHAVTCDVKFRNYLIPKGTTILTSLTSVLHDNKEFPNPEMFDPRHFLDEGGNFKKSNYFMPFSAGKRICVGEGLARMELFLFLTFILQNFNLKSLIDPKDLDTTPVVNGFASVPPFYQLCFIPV

Compound: CC(C)=NO[C@@H](C)c1cc(-c2c(C)cc(C)cc2C)no1
AC50: 0.631 µM (inconclusive)
//
Compound: N=c1c(C(=O)NC2CCCC2)cc2c(=O)n3ccccc3nc2n1C1CCCC1
AC50: 11.2 µM (inconclusive)
//
Compound: Cc1cc(C)cc(N(C(=O)c2ccccn2)C(C(=O)NC2CCCCC2)c2cccs2)c1 (stereo unspecified)
AC50: 17.8 µM (inconclusive)
//
Compound: O=C(Cn1nnc2ccccc21)N/N=C\C=C\c1ccccc1
AC50: 14.1 µM (inconclusive)
//
Compound: CN1CCC(=C2c3ccccc3CCc3sccc32)CC1
AC50: 3.98 µM (inconclusive)

Hey, quick one: what's AC50 for each of these?
1. O=C(NCCCN1CCCC1=O)c1ccc(CNS(=O)(=O)c2ccc(F)cc2)cc1
2. O=C(O)Cc1sc(-c2ccc(Cl)cc2)nc1-c1ccccc1
3. CCc1ccc(C(CC(=O)c2ccc(Cl)cc2)C(=O)O)cc1 (stereo unspecified)
4. CN1CCN(NC(=O)c2cccc(F)c2)CC1
5. Cc1noc(C)c1-c1nc(Nc2ccncc2)c2ccccc2n1
6. O=[N+]([O-])C(/C=C(\Cl)[N+](=O)[O-])=C1N(Cc2ccc(Cl)nc2)CCN1Cc1ccc(Cl)nc1

["39.8 µM (inconclusive)", "14.1 µM (inconclusive)", "0.00562 µM (inconclusive)", "39.8 µM (inconclusive)", "31.6 µM (inconclusive)", "31.6 µM (inconclusive)"]

* * *

biological target: UniProt P11712
Sequence (P11712 whole entry): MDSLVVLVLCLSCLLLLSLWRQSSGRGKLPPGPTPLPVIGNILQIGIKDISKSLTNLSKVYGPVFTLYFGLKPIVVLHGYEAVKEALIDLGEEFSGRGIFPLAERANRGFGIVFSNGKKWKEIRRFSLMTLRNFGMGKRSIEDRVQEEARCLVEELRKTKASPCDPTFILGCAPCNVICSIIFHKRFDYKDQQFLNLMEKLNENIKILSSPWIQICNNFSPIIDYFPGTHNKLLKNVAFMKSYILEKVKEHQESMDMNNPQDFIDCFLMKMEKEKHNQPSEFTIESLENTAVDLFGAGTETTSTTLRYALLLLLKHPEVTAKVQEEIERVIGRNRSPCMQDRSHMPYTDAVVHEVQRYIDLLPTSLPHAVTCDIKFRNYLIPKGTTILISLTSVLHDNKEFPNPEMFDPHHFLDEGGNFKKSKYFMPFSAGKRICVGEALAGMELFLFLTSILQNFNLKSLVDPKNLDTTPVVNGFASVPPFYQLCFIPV
Quantity measured: AC50

These recorded examples may help you get a feel for the data.
Molecule: CCC(=O)Nc1cccc(C(=O)/C=C/c2ccccc2)c1
AC50: inconclusive
//
Molecule: CCNC(=O)c1ccc(-n2nc(C(F)(F)F)c3c2CCCC3)cc1
AC50: inconclusive
//
Molecule: Nc1ccc2c3c(cccc13)C(=O)NC2=O
AC50: inconclusive
//
Molecule: CN(C)c1nc(-c2ccccc2C(F)(F)F)nc2ccccc12
AC50: inconclusive

Could you tell me AC50 for each of these molecules? They are listed below.
1. CN1C(=C2C(=O)OC(C)(C)OC2=O)Sc2ccccc21
2. Cc1cccc(-n2nnc(C(=O)NC3CCCc4ccccc43)c2N)c1 (configuration not stated)

1. inconclusive
2. inconclusive

Case COc1cc(Br)cc2cc(C(=O)NCC3CCCO3)c(=O)oc12 (configuration not stated) , UniProt P11712, AC50 recorded as inconclusive
